meta.source: ChEMBL document CHEMBL1201862

GI50 by entry:
Test system: TK-10
assayProtocol: NCI tumour cell line growth inhibition, 48 h
Active and inactive are the calls of the source. Rule as the data show it: active = GI50 up to about 1.1 µM and inactive = higher.

The following molecules have reported results that may help.
O=C(NCCO)c1c(O)c2ccccc2[nH]c1=O ... > 100 µM (inactive)
CSc1nnc2n1-c1ccccc1SCC2 ... > 100 µM (inactive)
COc1ccc2c(C)cc(N/N=C(\C)C=O)nc2c1 ... 15.7 µM (inactive)
COc1cc(OC)c(OC)cc1/C=C/c1ccc2ccccc2n1 ... > 10 µM (inactive)
NC1=CN(Cc2ccccc2)C2=N/C(=C\c3ccccc3O)C(=O)N12 ... > 100 µM (inactive)

Request: Please look up its GI50: C/C=C1/CN2CCC34c5ccccc5N(C)C23C2CC1C4(C(=O)OC)C(O)O2 (stereo unspecified)
Result: > 100 µM (inactive)

Request: // returns reported GI50 for input CC12CCCC3(CC(=O)C(C)(C)C3C(=O)C1)C2 (stereo unspecified)
Result: > 100 µM (inactive)

Request: Returns the measured GI50 for the input molecule. Input: CC1=C(C(=O)OCCO[N+](=O)[O-])C(c2cccc([N+](=O)[O-])c2)C(C(=O)OC(C)C)=C(C)N1 (stereo unspecified)
Result: 14.9 µM (inactive)

Request: // GI50 lookup, key: `N#C[C@H](C(=O)c1ccccc1F)c1nc2ccccc2s1`
Result: > 100 µM (inactive)

Request: Can you share its GI50? I mean this molecule: `Oc1cccc(-c2cn3cc(C(F)(F)F)ccc3n2)c1`
Result: 22.5 µM (inactive)

Request: Entry `COc1nc2sc3c(c2c(=O)n1CCCSSCCCn1c(OC)nc2sc4c(c2c1=O)CCCC4)CCCC3` has what GI50?
Result: > 100 µM (inactive)
